# Tested on: HeLa
# run description: Cytotoxicity against human HeLa cells […] by SRB assay
# Format: functional, cell-based
property: IC50 (µM)

• COC1=C2CC[C@@H]3[C@H](CC[C@@]4(C)[C@H]3CC[C@@]4(O)Cc3ccccn3)[C@@]2(C)CCC1=O = 19.1
• COc1cccc2c1C(=O)c1c(O)c3c(c(O)c1C2=O)C[C@@](O)(C(=O)CO)C[C@@H]3O[C@H]1C[C@H](N)[C@H](O)[C@H](C)O1 [DOXORUBICIN] = 1.17

###

# Test system: HeLa
# run description: Cytotoxicity against human HeLa cells […] by SRB assay
# Format: functional, cell-based
pIC50: −log10 of the molar value.
Overview of recorded pIC50 for various compounds
property: pIC50

• C[C@]12CCC(=O)C(O)=C1CC[C@@H]1[C@@H]2CC[C@]2(C)C(=O)CC[C@@H]12 = 5.26
• COC1=C2CC[C@@H]3[C@H](CC[C@]4(C)/C(=C/c5ccccn5)CC[C@@H]34)[C@@]2(C)CCC1=O = 4.82
• C[C@]12CCC(=O)C(O)=C1C=C[C@@H]1[C@@H]2CC[C@@]2(C)[C@H]1CC[C@@]2(O)Cc1ccccn1 = 4.44
• C[C@]12CCC=CC1=CC[C@@H]1[C@@H]2CC[C@]2(C)/C(=C/c3ccccn3)CC[C@@H]12 = 4.63
• C[C@]12CC[C@H](O)[C@@H](O)C1=CC[C@@H]1[C@@H]2CC[C@@]2(C)[C@H]1CC[C@@]2(O)Cc1ccccn1 = 4.67
• C[C@]12CCC=CC1=CC[C@@H]1[C@@H]2CC[C@@]2(C)[C@H]1CC[C@@]2(O)Cc1ccccn1 = 4.56
• C[C@]12CC[C@H](O)[C@H](O)C1=CC[C@@H]1[C@@H]2CC[C@@]2(C)[C@H]1CC[C@@]2(O)Cc1ccccn1 = 4.58

###

# Tested on: HeLa
# run description: Cytotoxicity against human HeLa cells […] by SRB assay
# Assay type: functional, cell-based
property: IC50

- C[C@]12CC[C@H](O)C=C1CC[C@@H]1[C@@H]2CC[C@@]2(C)[C@H]1CC[C@@]2(O)Cc1ccccn1: 26.9 µM
- CC(=O)O[C@@H]1C=C2CC[C@@H]3[C@H](CC[C@@]4(C)[C@H]3CC[C@@]4(O)Cc3ccccn3)[C@@]2(C)CC1: > 100 µM
- C[C@]12CC[C@H]3[C@@H](C[C@@H]4O[C@@]45C[C@@H](O)CC[C@]35C)[C@@H]1CC[C@@]2(O)Cc1cccc[n+]1[O-]: 33.5 µM

###

# Tested on: MDA-MB-231
# run description: Cytotoxicity against ER-negative human MDA-MB-231 cells after 48 hr by SRB assay
# protocol conditions: MDA-MB-231, 48 h
pIC50: −log10 of the molar value.
Given measured pIC50, output 1 if it is greater than or equal to 5 and 0 if not.

- C[C@]12CCC=CC1=CC[C@@H]1[C@@H]2CC[C@@]2(C)[C@H]1CC[C@@]2(O)Cc1ccccn1: 1
- COc1cccc2c1C(=O)c1c(O)c3c(c(O)c1C2=O)C[C@@](O)(C(=O)CO)C[C@@H]3O[C@H]1C[C@H](N)[C@H](O)[C@H](C)O1: 1
- C[C@]12CCC=CC1=CC[C@@H]1[C@@H]2CC[C@]2(C)/C(=C/c3ccccn3)CC[C@@H]12: 1
- C[C@]12CCC(=O)C(O)=C1CC[C@@H]1[C@@H]2CC[C@]2(C)C(=O)CC[C@@H]12: 0
- C[C@]12CCC(=O)C=C1C(=O)C[C@@H]1[C@@H]2CC[C@@]2(C)[C@H]1CC[C@@]2(O)Cc1ccccn1: 0
- C[C@]12CCC(=O)C(O)=C1C=C[C@@H]1[C@@H]2CC[C@@]2(C)[C@H]1CC[C@@]2(O)Cc1ccccn1: 1
- C[C@]12CC[C@H](O)C=C1CC[C@@H]1[C@@H]2CC[C@]2(C)/C(=C/c3ccccn3)CC[C@@H]12: 0
- C[C@]12CC[C@H](O)C=C1CC[C@@H]1[C@@H]2CC[C@@]2(C)[C@H]1CC[C@@]2(O)Cc1ccccn1: 1
- COC1=C2CC[C@@H]3[C@H](CC[C@@]4(C)[C@H]3CC[C@@]4(O)Cc3ccccn3)[C@@]2(C)CCC1=O: 0
- COC1=C2CC[C@@H]3[C@H](CC[C@]4(C)/C(=C/c5ccccn5)CC[C@@H]34)[C@@]2(C)CCC1=O: 1
- C[C@]12CC[C@H](O)[C@@H](O)C1=CC[C@@H]1[C@@H]2CC[C@@]2(C)[C@H]1CC[C@@]2(O)Cc1ccccn1: 1
- C[C@]12CC[C@H](O)CC1=CC[C@@H]1[C@@H]2CC[C@@]2(C)[C@H]1CC[C@@]2(O)Cc1ccccn1: 0

Each recorded value in this set is attributed to ChEMBL document CHEMBL2040837.
